pIC50: −log10 of the molar value.
attribute_measured: pIC50

Q: Observed pIC50 on UniProtKB Q04912 for `COc1ccc(C(=O)NC[C@H](O)CO)cc1/C=C/c1ccc(Cl)cc1` , please.
Sequence (Q04912 25-304 limits assumed): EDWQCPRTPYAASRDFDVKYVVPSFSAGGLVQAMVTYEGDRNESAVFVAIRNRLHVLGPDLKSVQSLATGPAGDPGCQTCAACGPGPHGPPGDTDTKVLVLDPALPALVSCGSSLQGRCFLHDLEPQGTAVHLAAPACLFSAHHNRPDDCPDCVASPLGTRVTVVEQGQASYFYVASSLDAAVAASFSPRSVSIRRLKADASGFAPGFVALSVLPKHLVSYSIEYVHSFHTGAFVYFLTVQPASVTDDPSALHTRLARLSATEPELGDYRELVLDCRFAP
Sequence (Q04912 310-1400 limits assumed): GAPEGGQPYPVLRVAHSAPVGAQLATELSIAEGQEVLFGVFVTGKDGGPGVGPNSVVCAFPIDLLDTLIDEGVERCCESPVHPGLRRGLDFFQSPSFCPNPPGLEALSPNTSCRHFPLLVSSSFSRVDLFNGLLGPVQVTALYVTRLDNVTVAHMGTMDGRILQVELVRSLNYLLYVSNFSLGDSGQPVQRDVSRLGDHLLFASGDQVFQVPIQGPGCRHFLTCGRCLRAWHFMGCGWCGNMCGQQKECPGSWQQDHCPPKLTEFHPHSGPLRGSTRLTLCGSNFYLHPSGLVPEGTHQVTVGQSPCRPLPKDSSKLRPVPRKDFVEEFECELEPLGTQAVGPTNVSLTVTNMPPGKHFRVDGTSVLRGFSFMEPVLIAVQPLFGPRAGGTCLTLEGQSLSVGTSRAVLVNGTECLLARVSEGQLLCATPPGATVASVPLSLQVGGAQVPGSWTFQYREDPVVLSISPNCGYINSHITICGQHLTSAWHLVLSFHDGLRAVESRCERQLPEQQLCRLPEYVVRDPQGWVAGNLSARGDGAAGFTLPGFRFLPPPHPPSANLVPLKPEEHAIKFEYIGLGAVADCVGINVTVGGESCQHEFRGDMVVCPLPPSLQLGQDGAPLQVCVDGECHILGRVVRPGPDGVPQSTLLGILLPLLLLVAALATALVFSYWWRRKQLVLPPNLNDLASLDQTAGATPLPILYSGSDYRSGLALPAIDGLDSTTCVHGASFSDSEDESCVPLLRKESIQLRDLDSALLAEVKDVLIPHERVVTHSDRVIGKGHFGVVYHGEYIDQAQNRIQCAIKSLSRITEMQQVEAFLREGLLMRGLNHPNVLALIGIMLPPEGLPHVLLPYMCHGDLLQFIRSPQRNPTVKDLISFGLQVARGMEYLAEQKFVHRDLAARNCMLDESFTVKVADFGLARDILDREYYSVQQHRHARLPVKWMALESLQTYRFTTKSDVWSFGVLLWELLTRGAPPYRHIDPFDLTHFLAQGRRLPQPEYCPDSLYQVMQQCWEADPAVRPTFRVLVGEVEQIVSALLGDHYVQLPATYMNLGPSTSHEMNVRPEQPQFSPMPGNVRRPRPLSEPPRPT
Ans: < 4.30

* * *

# tgt: Cyclin-dependent kinase 2 (Homo sapiens, UniProt P24941)
# assay_text: Inhibition of CDK2
attribute_measured: IC50

Q: Bench note: what IC50 did `COc1ccc(C(=O)NC[C@@H](O)CO)cc1/C=C/c1ccc(Cl)cc1` show?
Ans: > 50 µM

* * *

pIC50: −log10 of the molar value.
attribute_measured: pIC50

Q: Observed pIC50 on Insulin receptor (Homo sapiens, UniProt P06213) for `COc1ccc(C(=O)NC[C@H](O)CO)cc1/C=C/c1ccc(Cl)cc1` , please.
Sequence (P06213 28-758 limits assumed): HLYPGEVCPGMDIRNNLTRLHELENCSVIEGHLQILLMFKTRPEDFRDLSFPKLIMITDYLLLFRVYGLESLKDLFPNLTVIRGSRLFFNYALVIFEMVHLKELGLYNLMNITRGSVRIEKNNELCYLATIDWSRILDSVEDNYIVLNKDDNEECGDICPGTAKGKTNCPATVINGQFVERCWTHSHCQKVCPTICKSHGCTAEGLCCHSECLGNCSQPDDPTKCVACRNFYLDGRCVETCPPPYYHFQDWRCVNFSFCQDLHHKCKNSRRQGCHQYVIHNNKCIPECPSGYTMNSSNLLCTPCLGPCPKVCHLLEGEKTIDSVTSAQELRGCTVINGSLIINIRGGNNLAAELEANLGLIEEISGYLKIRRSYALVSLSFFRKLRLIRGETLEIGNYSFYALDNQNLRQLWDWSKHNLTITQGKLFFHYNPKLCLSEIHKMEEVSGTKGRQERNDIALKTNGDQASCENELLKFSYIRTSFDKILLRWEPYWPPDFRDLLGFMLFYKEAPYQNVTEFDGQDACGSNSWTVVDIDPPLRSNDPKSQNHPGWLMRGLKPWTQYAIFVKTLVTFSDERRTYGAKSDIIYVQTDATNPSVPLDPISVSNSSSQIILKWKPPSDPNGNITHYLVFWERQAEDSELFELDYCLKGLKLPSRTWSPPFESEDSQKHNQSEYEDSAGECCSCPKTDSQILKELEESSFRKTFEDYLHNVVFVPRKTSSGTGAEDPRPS
Sequence (P06213 763-1382 limits assumed): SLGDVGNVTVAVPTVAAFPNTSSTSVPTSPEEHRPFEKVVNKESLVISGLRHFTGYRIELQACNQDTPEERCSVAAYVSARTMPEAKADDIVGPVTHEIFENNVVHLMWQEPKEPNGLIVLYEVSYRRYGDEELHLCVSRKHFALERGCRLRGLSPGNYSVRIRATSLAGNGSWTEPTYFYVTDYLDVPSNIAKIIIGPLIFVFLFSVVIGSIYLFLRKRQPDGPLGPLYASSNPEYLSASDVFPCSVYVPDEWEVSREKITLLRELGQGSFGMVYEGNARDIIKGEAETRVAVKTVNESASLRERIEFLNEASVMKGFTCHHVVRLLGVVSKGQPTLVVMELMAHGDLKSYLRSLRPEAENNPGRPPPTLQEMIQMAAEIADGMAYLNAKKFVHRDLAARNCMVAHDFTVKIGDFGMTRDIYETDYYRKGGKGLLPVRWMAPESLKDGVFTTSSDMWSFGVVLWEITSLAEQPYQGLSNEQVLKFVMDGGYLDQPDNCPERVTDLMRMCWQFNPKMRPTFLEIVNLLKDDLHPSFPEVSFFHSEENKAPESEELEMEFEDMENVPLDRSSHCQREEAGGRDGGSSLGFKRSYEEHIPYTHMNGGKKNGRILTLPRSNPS
Ans: < 4.30

* * *

# assay_text: Solubility of the compound in fasted state simulated intestinal fluid at 10 mM after 2 hrs by HPLC-UV analysis
# Format: physicochemical
attribute_measured: solubility at 2 h, 10000 µM (µg/mL)
State the answer as a number, implicitly in µg/mL.

Q: Bench note: what solubility at 2 h, 10000 µM did `COc1ccc(C(N)=O)cc1C(=O)Nc1ccc(Cl)cc1` show?
Ans: 5

Q: Bench note: what solubility at 2 h, 10000 µM did `NC(=O)c1ccc(OCCOCCO)c(/C=C/c2ccc(Cl)cc2)c1` show?
Ans: 74

Q: Bench note: what solubility at 2 h, 10000 µM did `COc1ccc(C(N)=O)cc1/C=C\c1ccc(Cl)cc1` show?
Ans: 137

Q: Bench note: what solubility at 2 h, 10000 µM did `COc1ccc(C(=O)NC(CO)CO)cc1/C=C/c1ccc(Cl)cc1` show?
Ans: 251

Q: Bench note: what solubility at 2 h, 10000 µM did `COc1ccc(C(=O)NC[C@H](O)CO)cc1/C=C/c1ccc(Cl)cc1` show?
Ans: 263

Q: Bench note: what solubility at 2 h, 10000 µM did `COc1ccc(C(=O)NC[C@@H](O)CO)cc1/C=C/c1ccc(Cl)cc1` show?
Ans: 225

Q: Bench note: what solubility at 2 h, 10000 µM did `CCCOc1ccc(C(N)=O)cc1/C=C/c1ccc(Cl)cc1` show?
Ans: 4

Q: Bench note: what solubility at 2 h, 10000 µM did `CNC(=O)c1ccc(OC)c(/C=C/c2ccc(Cl)cc2)c1` show?
Ans: 24

Q: Bench note: what solubility at 2 h, 10000 µM did `CN1CCN(CCOc2ccc(C(N)=O)cc2/C=C/c2ccc(Cl)cc2)CC1` show?
Ans: 164

Q: Bench note: what solubility at 2 h, 10000 µM did `COc1ccc(C(=O)NCCO)cc1/C=C/c1ccc(Cl)cc1` show?
Ans: 16

Q: Bench note: what solubility at 2 h, 10000 µM did `CCNC(=O)c1ccc(OC)c(/C=C/c2ccc(Cl)cc2)c1` show?
Ans: 9

Q: Bench note: what solubility at 2 h, 10000 µM did `COc1ccc(C(N)=O)cc1/C=C/c1ccc(Cl)cc1` show?
Ans: 16

Q: Bench note: what solubility at 2 h, 10000 µM did `CN(C)CCOc1ccc(C(N)=O)cc1/C=C/c1ccc(Cl)cc1` show?
Ans: 109

Q: Bench note: what solubility at 2 h, 10000 µM did `CCOc1ccc(C(N)=O)cc1/C=C/c1ccc(Cl)cc1` show?
Ans: 10

Q: Bench note: what solubility at 2 h, 10000 µM did COc1ccc(C(=O)NCC(O)CO)cc1/C=C/c1ccc(Cl)cc1 (stereo not given) show?
Ans: 317
